- Tested Target: HLA-A02.01 (human)
- Test Details: pMHC-I complex dissociation at 37 C, radiolabeled b2m
- Condition Info: remark: other sources report otherwise
Experimental Readout: Stability (half-life (hr.)) (min)

Use these answered entries as a reference point.
• SLLNYLREM = 183
• MANGSLLNYL = 0
• QLIMQLMPF = 20.4

P: VQLIMQLMPF
Q: IMQLMPFGCL
Exam item: So which one has the bigger Stability (half-life (hr.)) here, P or Q ? Choose, then provide that item's label.
Marked response: Q
